# assay method text: APR_HepG2_MitoticArrest_24hr: Apredica 24-hour HepG2 Assay for Mitotic Arrest (AID 2282910)
# particulars: high-content imaging, actives raise or lower the signal
Calls of active or inactive are those of the source. The calls were made as follows: active = hit-call score of the fitted dose curve at least 0.9, where 1 is the maximum; inactive = score below 0.9.
In this exercise, the only acceptable responses are YES = active, NO = inactive

CCCC(=O)O    NO
CCCCCCC(C=O)=Cc1ccccc1    NO
CCN(CC)CCOc1ccc(C(=C(Cl)c2ccccc2)c2ccccc2)cc1    YES
CCCCOC(=O)CCCCC(=O)OCCCC    NO
CC(=O)OCC(COC(C)=O)OC(C)=O    NO
CCCCc1nc2cccnc2n1Cc1ccc(-c2ccccc2-c2nnn[nH]2)cc1    NO

Hey, what did the test say about CCCCCCCC(=O)OC ?
NO

Same read-out for c1ccc2occc2c1 ?
NO

Same read-out for Nc1nc(Cl)nc2c1ncn2[C@H]1C[C@H](O)[C@@H](CO)O1 ?
NO

Same read-out for C=CCc1ccc(OC)c(OC)c1 ?
NO

Same read-out for Nc1nc(=S)c2[nH]cnc2[nH]1 ?
NO

Same read-out for CCCCC(CC)CO (stereo not drawn) ?
NO

Same read-out for CC(=O)O[C@]1(C(C)=O)CC[C@H]2[C@@H]3C=C(Cl)C4=CC(=O)[C@@H]5C[C@@H]5[C@]4(C)[C@H]3CC[C@@]21C ?
NO

Each recorded value in this set is attributed to PubChem BioAssay (EPA / NIEHS).
